Consider the following molecules and their measured IC50 readings.
# tested.on: human BRD4 bromodomain II (Homo sapiens, UniProt O60885)
# Construct: human BRD4 bromodomain II [based on Genbank NM_058243, residues 349-460]; host or cells: E. coli
# assay.notes: Bromodomain binding assay (AlphaScreen), BRD4 BDII
# recorded.conditions: AlphaScreen assay, Table C2; read-out: BRD4 BDII IC50

For orientation, consider the following solved cases.
{"molecule": "CC(=O)Nc1ccc(-c2cccc(-c3cc(N4CCNCC4)no3)c2O)cc1OC1CCC1 [Example 24, 2,2,2-trifluoroacetate]", "IC50": "10 to 100 nM"}
{"molecule": "Cc1cc(-c2ccc(-n3ccn(C)c3=O)c(Cl)c2)c(O)c(-c2cc(N3CCN[C@H](C)C3)c3cn[nH]c3c2)c1 [Example 585]", "IC50": "1 to 10 nM"}
{"molecule": "O=C1CCOc2cc(-c3cccc(-c4cc(N5CCNCC5)no4)c3O)ccc2N1 [Example 62]", "IC50": "> 100 nM"}
{"molecule": "CC(=O)Nc1ccc(-c2cccc(-c3ccc4c(c3)CCN4C(C)=O)c2O)cc1F [Example 47]", "IC50": "> 100 nM"}

Consider the additional molecule presented here.
INPUT: # return recorded IC50 for input CC(=O)Nc1ccc(-c2cccc(-c3cc(N4CCN(S(=O)(=O)c5ccccc5)CC4)no3)c2O)cc1 [Example 58]
OUTPUT: > 100 nM

====

Catalogue of compounds with associated IC50
# tested.on: human BRD4 bromodomain II (Homo sapiens, UniProt O60885)
# Construct: human BRD4 bromodomain II [based on Genbank NM_058243, residues 349-460]; host or cells: E. coli
# assay.notes: Bromodomain binding assay (AlphaScreen), BRD4 BDII
# recorded.conditions: BRD4 BDII AlphaScreen assay; read-out: BRD4 BD2 IC50

Example results:
{"compound": "Cn1ccn(-c2ccc(-c3cc(F)cc(-c4cccc(-c5ccc(CO)cc5)c4)c3O)cc2Cl)c1=O", "observed": "10 to 100 nM"}
{"compound": "COc1ncc(-c2nccc(-c3ccc(-n4ccn(C)c4=O)c(Cl)c3)c2O)cc1N1CCN(C(C)(C)C)CC1", "observed": "1 to 10 nM"}

Now consider the entry below.
INPUT: Name the recorded IC50 of the item `Cn1ccn(-c2ccc(-c3cc(F)cc(-c4cccc(N5CCN(C(C)(C)C)CC5=O)c4)c3O)cc2Cl)c1=O` in your answer.
OUTPUT: 0.01 to 1 nM

====

# tested.on: human BRD4 bromodomain II (Homo sapiens)
# Construct: human BRD4 bromodomain II [based on Genbank NM_058243, residues 349-460]; host or cells: E. coli
# assay.notes: Bromodomain binding assay (AlphaScreen), BRD4 BDII
# recorded.conditions: AlphaScreen assay, Table C2; read-out: BRD4 BDII IC50
quantity.name: IC50

{"compound": "C[C@@H]1CN(c2cncc(-c3cc(Cl)cc(-c4ccc(-n5ccn(C)c5=O)c(Cl)c4)c3O)c2)CCN1 [Example 529]", "observed": "1 to 10 nM"}
{"compound": "Cn1ccn(-c2ccc(-c3cc(Cl)cc(-c4cncc(N5CC[C@H](N)C5)c4)c3O)cc2Cl)c1=O [Example 510]", "observed": "10 to 100 nM"}
{"compound": "C[C@@H]1CN(c2cc(-c3cc(F)cc(-c4ccc(-n5ccn(C)c5=O)c(Cl)c4)c3O)cn3ncnc23)CCN1 [Example 602]", "observed": "0.01 to 1 nM"}
{"compound": "C[C@@H]1CN(c2cc(-c3cc(F)cc(-c4ccc(-n5ccn(C)c5=O)c(Cl)c4)c3N)ccn2)CCN1 [Example 542]", "observed": "1 to 10 nM"}
{"compound": "Cn1ccn(-c2ccc(-c3cc(F)cc(-c4ccnc(N5CCN(CC6COC6)CC5)c4)c3O)cc2Cl)c1=O [Example 611]", "observed": "0.01 to 1 nM"}

Then there is this compound:
INPUT: Determine its reported IC50: COC(=O)Nc1ccc(-c2cccc(-c3cc(N4CCNCC4)no3)c2O)cc1 [Example 141, 2,2,2-trifluoroacetate]
OUTPUT: > 100 nM

====

# tested.on: human BRD4 bromodomain II (Homo sapiens)
# Construct: human BRD4 bromodomain II [based on Genbank NM_058243, residues 349-460]; host or cells: E. coli
# assay.notes: Bromodomain binding assay (AlphaScreen), BRD4 BDII
# recorded.conditions: AlphaScreen assay, Table C2; read-out: BRD4 BDII IC50
pIC50: −log10 of the molar value.
quantity.name: pIC50

{"molecule": "Cn1ccn(-c2ccc(-c3cc(F)cc(-c4cc(F)cc(N5CCN(C(C)(C)C)CC5)c4)c3O)cc2Cl)c1=O", "tested.on": "human BRD4 bromodomain II (Homo sapiens)", "quantity.name": "pIC50", "observed": "9.00 to 11.00"}
{"molecule": "CC(=O)Nc1ccc(-c2cccc(-c3cnn(-c4ccccc4)c3)c2O)cc1F", "tested.on": "human BRD4 bromodomain II (Homo sapiens)", "quantity.name": "pIC50", "observed": "< 7.00"}
{"molecule": "COCC(C)(C)N1CCN(c2cc(-c3cc(F)cc(-c4ccc(-n5ccn(C)c5=O)c(Cl)c4)c3O)ccn2)CC1", "tested.on": "human BRD4 bromodomain II (Homo sapiens)", "quantity.name": "pIC50", "observed": "9.00 to 11.00"}
{"molecule": "CC(=O)Nc1ccc(-c2cccc(-c3ccc(F)cc3)c2O)cc1F", "tested.on": "human BRD4 bromodomain II (Homo sapiens)", "quantity.name": "pIC50", "observed": "< 7.00"}
{"molecule": "CC(=O)Nc1ccc(-c2cccc(-c3cccc(N4CC5CC4CN5)c3)c2O)cc1F (stereo not drawn)", "tested.on": "human BRD4 bromodomain II (Homo sapiens)", "quantity.name": "pIC50", "observed": "7.00 to 8.00"}

INPUT: Output pIC50 of `O=C1NCCN1c1ccc(-c2cccc(-c3ccnc(N4CCNCC4)c3)c2O)cc1F`
OUTPUT: 8.00 to 9.00

INPUT: Report pIC50, nothing else, for this molecule: `CC(C)N1CCN(c2cc(-c3cc(F)cc(-c4ccc(-n5ccn(C)c5=O)c(Cl)c4)c3O)cc(=O)n2C)CC1`
OUTPUT: 9.00 to 11.00

====

# tested.on: human BRD4 bromodomain II (Homo sapiens, UniProt O60885)
# Construct: human BRD4 bromodomain II [based on Genbank NM_058243, residues 349-460]; host or cells: E. coli
# assay.notes: Bromodomain binding assay (AlphaScreen), BRD4 BDII
# recorded.conditions: AlphaScreen assay, Table C2; read-out: BRD4 BDII IC50
pIC50: −log10 of the molar value. Where a name gives a salt, the structure may show the parent alone.
quantity.name: pIC50

Solved entries:
{"compound": "CN1CCN(c2ccc(-c3cccc(-c4ccc(C#N)c(N5CCNCC5)c4)c3O)cc2Cl)C1=O [Example 308]", "tested.on": "human BRD4 bromodomain II (Homo sapiens, UniProt O60885)", "quantity.name": "pIC50", "observed": "8.00 to 9.00"}
{"compound": "CC(=O)Nc1ccc(-c2cccc(-c3cc(N4CCNCC4)no3)c2O)cc1F [Example 34, trifluoroacetate]", "tested.on": "human BRD4 bromodomain II (Homo sapiens, UniProt O60885)", "quantity.name": "pIC50", "observed": "7.00 to 8.00"}
{"compound": "CC1(C)CCN(c2ccc(-c3cccc(-c4ccnc(N5CCNCC5)c4)c3O)cc2Cl)C1=O [Example 329]", "tested.on": "human BRD4 bromodomain II (Homo sapiens, UniProt O60885)", "quantity.name": "pIC50", "observed": "< 7.00"}
{"compound": "CC(=O)Nc1ccc(-c2cccc(-c3cc(N4CCNCC4)nc(N4CCNCC4)c3)c2O)cc1F [Example 218]", "tested.on": "human BRD4 bromodomain II (Homo sapiens, UniProt O60885)", "quantity.name": "pIC50", "observed": "8.00 to 9.00"}
{"compound": "O=C1CCCN1c1ccc(-c2c[nH]cc(-c3cccc(N4CCNCC4)c3)c2=O)cc1F [Example 307]", "tested.on": "human BRD4 bromodomain II (Homo sapiens, UniProt O60885)", "quantity.name": "pIC50", "observed": "< 7.00"}

Now let's try a different one.
INPUT: Report pIC50, nothing else, for this compound: Cn1ccn(-c2ccc(-c3cc(F)cc(-c4ccnc(N5CCN6C(=O)OCCC6C5)c4)c3O)cc2Cl)c1=O (stereo not shown) [Example 675]
OUTPUT: 9.00 to 11.00

====

A collection of compounds and their measured GI50
# System: human SKM-1 acute myeloid leukemia cells
# assay.notes: SKM-1 antiproliferation cell-based assay (ATPlite)
# recorded.conditions: Homo sapiens, SKM-1, 96 h, SKM-1 antiproliferation assay, 4 days, Table C2

Consider the worked cases shown below.
{"compound": "CN1CC2CN(c3cc(-c4cc(F)cc(-c5ccc(-n6ccn(C)c6=O)c(Cl)c5)c4O)ccn3)CC21 (stereo not shown) [Example 659]", "observed": "0.3 to 30 nM"}
{"compound": "[2H]C([2H])([2H])N1CCN(c2ccc(-c3cc(F)cc(-c4ccnc(N5CCNCC5)c4)c3O)cc2Cl)C1=O [Example 412]", "observed": "30 to 300 nM"}
{"compound": "Cn1ccn(-c2ccc(-c3cc(F)cc(-c4ccc(=O)n(C5CCNCC5)c4)c3O)cc2Cl)c1=O [Example 486]", "observed": "30 to 300 nM"}
{"compound": "CC(=O)Nc1ccc(-c2cccc(-c3cc(OC4CCC(N)CC4)nc(N4CCNCC4)c3)c2O)cc1F (stereo not shown) [Example 375]", "observed": "300 to 3000 nM"}
{"compound": "CC(=O)NC1(C)CCN(c2cc(-c3cc(F)cc(-c4ccc(-n5ccn(C)c5=O)c(Cl)c4)c3O)ccn2)CC1 [Example 790]", "observed": "0.3 to 30 nM"}

INPUT: Give the observed GI50 of Cc1cc(-c2ccc(-n3ccn(C)c3=O)c(Cl)c2)c(O)c(-c2cc(N3CCNCC3)c3nccnc3c2)c1 [Example 562] for human SKM-1 acute myeloid leukemia cells.
OUTPUT: 0.3 to 30 nM

INPUT: Specify GI50 for Cn1ccn(-c2ccc(-c3cc(F)cc(-c4ccnc(N5CCC[C@H](O)C5)c4)c3O)cc2Cl)c1=O [Example 628] , system human SKM-1 acute myeloid leukemia cells.
OUTPUT: 30 to 300 nM

INPUT: Give the observed GI50 of Cn1ccn(-c2ccc(-c3cc(F)cc(-c4cc(-c5ccn[nH]5)cc(N5CCNCC5)c4)c3O)cc2Cl)c1=O [Example 568] for human SKM-1 acute myeloid leukemia cells.
OUTPUT: 0.3 to 30 nM

INPUT: Report GI50 from human SKM-1 acute myeloid leukemia cells testing of CN(C)[C@H]1CCN(c2cncc(-c3cc(F)cc(-c4ccc(-n5ccn(C)c5=O)c(Cl)c4)c3O)c2)C1 [Example 475]
OUTPUT: 0.3 to 30 nM

INPUT: Would you please give the reported GI50 of Cn1ccn(-c2ccc(-c3cc(F)cc(-c4cncc(N5CCC(C)(N)C5)c4)c3O)cc2Cl)c1=O (stereo not shown) [Example 745] with human SKM-1 acute myeloid leukemia cells?
OUTPUT: 0.3 to 30 nM
